src = patent US20260365670A1

- assayed.system: EGFR[T790M/C797S/L858R] (Homo sapiens, UniProt P00533, C797S/L858R/T790M)
- Construct: purchased Carna Bio
- Sequence (P00533 25-1210 T790M/C797S/L858R): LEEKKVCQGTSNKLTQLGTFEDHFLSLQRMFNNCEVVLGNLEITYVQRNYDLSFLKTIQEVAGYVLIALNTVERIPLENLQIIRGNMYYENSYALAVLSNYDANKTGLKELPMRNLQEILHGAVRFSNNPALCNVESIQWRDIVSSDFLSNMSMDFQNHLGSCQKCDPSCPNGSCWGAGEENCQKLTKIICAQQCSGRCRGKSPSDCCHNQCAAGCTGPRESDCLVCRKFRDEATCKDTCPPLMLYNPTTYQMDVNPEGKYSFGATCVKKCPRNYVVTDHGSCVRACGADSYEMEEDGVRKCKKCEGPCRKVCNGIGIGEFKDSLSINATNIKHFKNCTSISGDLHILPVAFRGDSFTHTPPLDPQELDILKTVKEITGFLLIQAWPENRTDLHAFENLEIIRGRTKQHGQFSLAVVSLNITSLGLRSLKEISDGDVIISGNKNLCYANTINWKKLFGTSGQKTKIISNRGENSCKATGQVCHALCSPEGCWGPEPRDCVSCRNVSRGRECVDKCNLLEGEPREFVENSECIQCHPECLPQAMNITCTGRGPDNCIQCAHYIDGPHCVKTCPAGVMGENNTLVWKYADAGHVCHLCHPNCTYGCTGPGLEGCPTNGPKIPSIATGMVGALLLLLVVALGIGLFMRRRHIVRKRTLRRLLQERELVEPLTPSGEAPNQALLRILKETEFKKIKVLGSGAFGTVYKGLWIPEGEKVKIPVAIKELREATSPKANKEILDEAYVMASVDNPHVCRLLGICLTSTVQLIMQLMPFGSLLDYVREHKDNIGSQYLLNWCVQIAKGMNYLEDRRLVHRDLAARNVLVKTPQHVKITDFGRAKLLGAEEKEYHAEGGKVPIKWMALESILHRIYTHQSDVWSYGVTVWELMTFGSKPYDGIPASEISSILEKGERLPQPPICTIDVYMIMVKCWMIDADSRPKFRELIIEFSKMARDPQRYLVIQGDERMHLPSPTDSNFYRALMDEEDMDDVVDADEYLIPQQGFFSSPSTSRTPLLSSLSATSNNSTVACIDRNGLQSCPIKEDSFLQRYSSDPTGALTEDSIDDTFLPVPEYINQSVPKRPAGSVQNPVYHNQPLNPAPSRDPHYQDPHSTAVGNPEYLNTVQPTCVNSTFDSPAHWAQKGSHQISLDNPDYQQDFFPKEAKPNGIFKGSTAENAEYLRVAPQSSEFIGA
- assay.name: Inhibition of EGFR[T790M/C797S/L858R] biochemical enzymatic activity (HTRF)
- measurement.context: EGFR[T790M/C797S/L858R], 1 mM ATP, 1 h at room temperature, read-out: IC50 @T790M- C797S - L858R
pIC50: −log10 of the molar value.
reported.metric: pIC50

molecule	reported.metric	value.reported
Cc1cc2cc(n1)-c1cnn(C)c1OCCN1CC3CCC(C3)(C1)n1c(nc3ccc(N4CCC5(CCN(C)CC5)C4)cc31)NC2=O (single isomer, unassigned) [Example B51A]	pIC50	< 5.30
Cc1cc2cc(n1)-c1cnn(C)c1OCCN1CC3CCC(C3)(C1)n1c(nc3ccc(N4CCC5(CN(C)C5)C4)cc31)NC2=O (single isomer, unassigned) [Example B50A]	pIC50	< 5.30
Cc1cc2cc(n1)-c1cnn(C)c1OCCN1CC3CCC(C3)(C1)n1c(nc3ccc(N(C)CCN(C)C)cc31)NC2=O (single isomer, unassigned) [Example B47A]	pIC50	< 5.30
Cc1cc2cc(n1)-c1cnn(C)c1OCCN1CC3CCC(C3)(C1)n1c(nc3ccc(N4CCN(C(C)C)CC4)cc31)NC2=O (single isomer, unassigned) [Example B57B]	pIC50	8.74
COCCN(C)c1ccc2nc3n(c2c1)C12CCC(CN(CCOc4c(cnn4C)-c4cc(cc(C)n4)C(=O)N3)C1)C2 (single isomer, unassigned) [Example B46A]	pIC50	< 5.30
Cc1cc2cc(n1)-c1cnn(C)c1OCCN1CC3CCC(C3)(C1)n1c(nc3ccc(N(C)CCN(C)C)cc31)NC2=O (single isomer, unassigned) [Example B47B]	pIC50	8.82
Cc1cc2cc(n1)-c1cnn(C)c1OCCN1CC3CCC(CC3)(C1)n1c(nc3ccc(N4CCC5(CCN(C)CC5)C4)cc31)NC2=O [Example B31]	pIC50	8.09
Cc1cc2cc(n1)-c1cnn(C)c1OCCN1CC3CCC(C3)(C1)n1c(nc3ccc(N4CCC(N5CCN(C)CC5)C4)cc31)NC2=O (single isomer, unassigned) [Example B49A]	pIC50	< 5.30
Cc1cc2cc(n1)-c1cnn(C)c1OCCN1CC3CCC(C3)(C1)n1c(nc3ccc(N4CCC5(CCN(C)C5)CC4)cc31)NC2=O (single isomer, unassigned) [Example B52A]	pIC50	< 5.30
Cc1cc2cc(n1)-c1cnn(C)c1OCCN1CC3CCC(C3)(C1)n1c(nc3ccc(N4CCN(C5COC5)CC4)cc31)NC2=O (single isomer, unassigned) [Example B58A]	pIC50	< 5.30
Cc1cc2cc(n1)-c1cnn(C)c1OCCN1CC3CCC(C3)(C1)n1c(nc3ccc(N4CC[C@H](N(C)C)C4)cc31)NC2=O (single isomer, unassigned) [Example B41A]	pIC50	< 5.30
Cc1cc2cc(n1)-c1cnn(C)c1OCCN1CC3CCC(CC3)(C1)n1c(nc3ccc(N4CC5CN(C)CC5C4)cc31)NC2=O (stereo not drawn)	pIC50	8.08
